- assay_system: T1, cynomolgus soluble urokinase plasminogen activator receptor (cynomolgus suPAR) (cynomolgus, UniProt Q9GK78 23-303, limits assumed)
- T1 construct: also called cynomolgus uPAR; cynoPLAUR-His
- T1 sequence (Q9GK78 23-303 limits assumed): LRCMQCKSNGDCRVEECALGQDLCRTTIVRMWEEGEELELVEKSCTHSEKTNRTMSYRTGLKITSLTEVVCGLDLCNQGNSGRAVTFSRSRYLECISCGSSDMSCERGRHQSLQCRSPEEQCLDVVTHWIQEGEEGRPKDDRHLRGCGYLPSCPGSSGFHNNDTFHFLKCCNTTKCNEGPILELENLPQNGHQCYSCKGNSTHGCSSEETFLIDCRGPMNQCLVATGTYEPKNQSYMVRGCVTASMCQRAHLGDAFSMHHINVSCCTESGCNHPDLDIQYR
- assay_info: BLI (Octet) off-rate screen of scFv
koff: recorded values
Number only, in s⁻¹; omit the unit.

- suPAR_DB02_C02 (scFv, V domains shown, Screened as scFv) VH: QVQLVQSGAEVKKPGASVKVSCKASGYTFKSYYMHWVRQAPGQGLEWMGWIDHENGNTIYDQKFQGRVTMTRDTSTSTVYMELSSLRSEDTAVYYCASGYDVDWFVYWGQGTLVTVSS VL: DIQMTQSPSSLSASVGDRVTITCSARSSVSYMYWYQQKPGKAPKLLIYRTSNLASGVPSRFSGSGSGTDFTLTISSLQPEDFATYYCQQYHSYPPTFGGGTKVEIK: 3.58e-05

Exercise: Param item = suPAR_DB02_A07 (scFv, V domains shown, Screened as scFv) VH: QVQLVQSGAEVKKPGASVKVSCKASGYNIKDYYIHWVRQAPGQGLEWMGWISPDSGVTNYAQKFQGRVTMTRDTSTSTVYMELSSLRSEDTAVYYCARGYDVDWFVYWGQGTLVTVSS VL: DIQMTQSPSSLSASVGDRVTITCSARQSVSYMYWYQQKPGKAPKLLIYRTSNLASGVPSRFSGSGSGTDFTLTISSLQPEDFATYYCQQYHSYPPTFGGGTKVEIK ; retrieve measured koff.
Key: 0.000352
